tested on: Staphylococcus aureus ATCC 6538; experiment: DGHM suspension test, microbicidal activity; format: cell-based; conditions: CU 800 mg/l; contact time 30 mins.
Quantity Kind: logarithmic reduction factor

>  <Compound>
CCCCCCCCCCCC(=O)OCC[N+](C)(CCO)CCOC(=O)CCCCCCCCCCC.COS(=O)(=O)[O-] [Example 5]

>  <Assay Result>
>5.75

$$$$
>  <Compound>
CCCCCCCC(=O)OCC[N+](C)(C)CCOC(=O)CCCCCCC.COS(=O)(=O)[O-] [Example 1]

>  <Assay Result>
<3.96

$$$$
>  <Compound>
CCCCCCCCCC(=O)OCC[N+](C)(CCO)CCOC(=O)CCCCCCCCC.COS(=O)(=O)[O-] [Example 6]

>  <Assay Result>
>5.75

$$$$
>  <Compound>
CCCCCCCC(=O)OCC[N+](C)(CCO)CCOC(=O)CCCCCCC.COS(=O)(=O)[O-] [Example 7]

>  <Assay Result>
>5.42

$$$$
>  <Compound>
CCCCCCCC(=O)OCC[N+](C)(CCOC(=O)CCCCCCC)CCOC(=O)CCCCCCC.COS(=O)(=O)[O-] [Example 2]

>  <Assay Result>
>5.50

$$$$
>  <Compound>
CCCCCCCCC(=O)OCC[N+](C)(C)CCOC(=O)CCCCCCCC.COS(=O)(=O)[O-] [Example 3]

>  <Assay Result>
>5.19

$$$$

---

tested on: Pseudomonas aeruginosa ATCC 15442; assay: DGHM suspension test, microbicidal activity; assay type: cell-based; conditions: CU 800 mg/l; contact time 30 mins.
Recorded logarithmic reduction factor values for a group of molecules are listed next.

>  <Molecule>
CCCCCCCC(=O)OCC[N+](C)(CCO)CCOC(=O)CCCCCCC.COS(=O)(=O)[O-] [Example 7]

>  <logarithmic reduction factor>
>5.76

$$$$
>  <Molecule>
CCCCCCCCC(=O)OCC[N+](C)(C)CCOC(=O)CCCCCCCC.COS(=O)(=O)[O-] [Example 3]

>  <logarithmic reduction factor>
>5.67

$$$$
>  <Molecule>
CCCCCCCC(=O)OCC[N+](C)(CCOC(=O)CCCCCCC)CCOC(=O)CCCCCCC.COS(=O)(=O)[O-] [Example 2]

>  <logarithmic reduction factor>
>5.68

$$$$
>  <Molecule>
CCCCCCCC(=O)OCC[N+](C)(C)CCOC(=O)CCCCCCC.COS(=O)(=O)[O-] [Example 1]

>  <logarithmic reduction factor>
>5.55

$$$$
>  <Molecule>
CCCCCCCCCCCC(=O)OCC[N+](C)(CCO)CCOC(=O)CCCCCCCCCCC.COS(=O)(=O)[O-] [Example 5]

>  <logarithmic reduction factor>
3.95

$$$$
>  <Molecule>
CCCCCCCCCC(=O)OCC[N+](C)(CCO)CCOC(=O)CCCCCCCCC.COS(=O)(=O)[O-] [Example 6]

>  <logarithmic reduction factor>
4.76

$$$$

---

tested on: Pseudomonas aeruginosa ATCC 15442; assay: DGHM suspension test, microbicidal activity; format: cell-based; conditions: CU 200 mg/l; contact time 30 mins.

>  <Input Smiles>
CCCCCCCCC(=O)OCC[N+](C)(C)CCOC(=O)CCCCCCCC.COS(=O)(=O)[O-]

>  <Qualifier Operator>
>

>  <logarithmic reduction factor>
5.67

$$$$
>  <Input Smiles>
CCCCCCCCCCCC(=O)OCC[N+](C)(C)CCOC(=O)CCCCCCCCCCC.COS(=O)(=O)[O-]

>  <Qualifier Operator>
=

>  <logarithmic reduction factor>
3.05

$$$$
>  <Input Smiles>
CCCCCCCC(=O)OCC[N+](C)(CCOC(=O)CCCCCCC)CCOC(=O)CCCCCCC.COS(=O)(=O)[O-]

>  <Qualifier Operator>
=

>  <logarithmic reduction factor>
4.40

$$$$
>  <Input Smiles>
CCCCCCCCCCCC(=O)OCC[N+](C)(CCO)CCOC(=O)CCCCCCCCCCC.COS(=O)(=O)[O-]

>  <Qualifier Operator>
<

>  <logarithmic reduction factor>
1.71

$$$$
>  <Input Smiles>
CCCCCCCC(=O)OCC[N+](C)(C)CCOC(=O)CCCCCCC.COS(=O)(=O)[O-]

>  <Qualifier Operator>
<

>  <logarithmic reduction factor>
1.55

$$$$
>  <Input Smiles>
CCCCCCCCCC(=O)OCC[N+](C)(C)CCOC(=O)CCCCCCCCC.COS(=O)(=O)[O-]

>  <Qualifier Operator>
=

>  <logarithmic reduction factor>
5.50

$$$$
>  <Input Smiles>
CCCCCCCC(=O)OCC[N+](C)(CCO)CCOC(=O)CCCCCCC.COS(=O)(=O)[O-]

>  <Qualifier Operator>
=

>  <logarithmic reduction factor>
5.76

$$$$
>  <Input Smiles>
CCCCCCCCCC(=O)OCC[N+](C)(CCOC(=O)CCCCCCCCC)CCOC(=O)CCCCCCCCC.COS(=O)(=O)[O-]

>  <Qualifier Operator>
<

>  <logarithmic reduction factor>
1.80

$$$$
>  <Input Smiles>
CCCCCCCCCC(=O)OCC[N+](C)(CCO)CCOC(=O)CCCCCCCCC.COS(=O)(=O)[O-]

>  <Qualifier Operator>
=

>  <logarithmic reduction factor>
3.35

$$$$

---

Recorded logarithmic reduction factor values for a group of molecules are listed next.
system: Candida albicans ATCC 10231; test: DGHM suspension test, microbicidal activity; type: cell-based; conditions: CU 400 mg/l; contact time 5 mins.
Quantity Kind: logarithmic reduction factor

>  <Molecule>
CCCCCCCC(=O)OCC[N+](C)(CCO)CCOC(=O)CCCCCCC.COS(=O)(=O)[O-] [Example 7]

>  <Quantity Kind>
logarithmic reduction factor

>  <Assay Result>
>4.31

$$$$
>  <Molecule>
CCCCCCCC(=O)OCC[N+](C)(C)CCOC(=O)CCCCCCC.COS(=O)(=O)[O-] [Example 1]

>  <Quantity Kind>
logarithmic reduction factor

>  <Assay Result>
>4.5

$$$$
>  <Molecule>
CCCCCCCCC(=O)OCC[N+](C)(C)CCOC(=O)CCCCCCCC.COS(=O)(=O)[O-] [Example 3]

>  <Quantity Kind>
logarithmic reduction factor

>  <Assay Result>
>4.63

$$$$
>  <Molecule>
CCCCCCCC(=O)OCC[N+](C)(CCOC(=O)CCCCCCC)CCOC(=O)CCCCCCC.COS(=O)(=O)[O-] [Example 2]

>  <Quantity Kind>
logarithmic reduction factor

>  <Assay Result>
>4.73

$$$$
>  <Molecule>
CCCCCCCCCC(=O)OCC[N+](C)(CCO)CCOC(=O)CCCCCCCCC.COS(=O)(=O)[O-] [Example 6]

>  <Quantity Kind>
logarithmic reduction factor

>  <Assay Result>
1.38

$$$$

---

test system: Pseudomonas aeruginosa ATCC 15442; assay: DGHM suspension test, microbicidal activity; format: cell-based; conditions: CU 200 mg/l; contact time 15 mins.
Recorded logarithmic reduction factor values for a group of compounds are listed next.

>  <Input Smiles>
CCCCCCCCCC(=O)OCC[N+](C)(C)CCOC(=O)CCCCCCCCC.COS(=O)(=O)[O-]

>  <logarithmic reduction factor>
4.51

$$$$
>  <Input Smiles>
CCCCCCCCCCCC(=O)OCC[N+](C)(CCO)CCOC(=O)CCCCCCCCCCC.COS(=O)(=O)[O-]

>  <logarithmic reduction factor>
<1.79

$$$$
>  <Input Smiles>
CCCCCCCC(=O)OCC[N+](C)(CCOC(=O)CCCCCCC)CCOC(=O)CCCCCCC.COS(=O)(=O)[O-]

>  <logarithmic reduction factor>
3.95

$$$$
>  <Input Smiles>
CCCCCCCCCCCC(=O)OCC[N+](C)(C)CCOC(=O)CCCCCCCCCCC.COS(=O)(=O)[O-]

>  <logarithmic reduction factor>
<1.93

$$$$
>  <Input Smiles>
CCCCCCCC(=O)OCC[N+](C)(C)CCOC(=O)CCCCCCC.COS(=O)(=O)[O-]

>  <logarithmic reduction factor>
<1.47

$$$$
>  <Input Smiles>
CCCCCCCCCC(=O)OCC[N+](C)(CCO)CCOC(=O)CCCCCCCCC.COS(=O)(=O)[O-]

>  <logarithmic reduction factor>
<1.79

$$$$
>  <Input Smiles>
CCCCCCCC(=O)OCC[N+](C)(CCO)CCOC(=O)CCCCCCC.COS(=O)(=O)[O-]

>  <logarithmic reduction factor>
>5.72

$$$$
>  <Input Smiles>
CCCCCCCCCC(=O)OCC[N+](C)(CCOC(=O)CCCCCCCCC)CCOC(=O)CCCCCCCCC.COS(=O)(=O)[O-]

>  <logarithmic reduction factor>
<1.93

$$$$
>  <Input Smiles>
CCCCCCCCC(=O)OCC[N+](C)(C)CCOC(=O)CCCCCCCC.COS(=O)(=O)[O-]

>  <logarithmic reduction factor>
>5.58

$$$$

---

Recorded logarithmic reduction factor values for a group of compounds are listed next.
system: Staphylococcus aureus ATCC 6538; test: DGHM suspension test, microbicidal activity; assay type: cell-based; details: CU 200 mg/l; contact time 5 mins.
Quantity Kind: logarithmic reduction factor

>  <Input Smiles>
CCCCCCCCCC(=O)OCC[N+](C)(CCO)CCOC(=O)CCCCCCCCC.COS(=O)(=O)[O-]

>  <Target Entity>
Staphylococcus aureus ATCC 6538

>  <Qualifier Operator>
=

>  <Assay Result>
4.55

$$$$
>  <Input Smiles>
CCCCCCCCCCCC(=O)OCC[N+](C)(CCO)CCOC(=O)CCCCCCCCCCC.COS(=O)(=O)[O-]

>  <Target Entity>
Staphylococcus aureus ATCC 6538

>  <Qualifier Operator>
=

>  <Assay Result>
2.52

$$$$
>  <Input Smiles>
CCCCCCCC(=O)OCC[N+](C)(CCOC(=O)CCCCCCC)CCOC(=O)CCCCCCC.COS(=O)(=O)[O-]

>  <Target Entity>
Staphylococcus aureus ATCC 6538

>  <Qualifier Operator>
=

>  <Assay Result>
4.32

$$$$
>  <Input Smiles>
CCCCCCCCCCCC(=O)OCC[N+](C)(C)CCOC(=O)CCCCCCCCCCC.COS(=O)(=O)[O-]

>  <Target Entity>
Staphylococcus aureus ATCC 6538

>  <Qualifier Operator>
=

>  <Assay Result>
2.34

$$$$
>  <Input Smiles>
CCCCCCCCCC(=O)OCC[N+](C)(CCOC(=O)CCCCCCCCC)CCOC(=O)CCCCCCCCC.COS(=O)(=O)[O-]

>  <Target Entity>
Staphylococcus aureus ATCC 6538

>  <Qualifier Operator>
<

>  <Assay Result>
1.39

$$$$
>  <Input Smiles>
CCCCCCCCC(=O)OCC[N+](C)(C)CCOC(=O)CCCCCCCC.COS(=O)(=O)[O-]

>  <Target Entity>
Staphylococcus aureus ATCC 6538

>  <Qualifier Operator>
=

>  <Assay Result>
2.05

$$$$
